- measuredOn: Acetylcholinesterase (Homo sapiens) (UniProt P22303)
- Sequence (P22303 whole entry, looked up): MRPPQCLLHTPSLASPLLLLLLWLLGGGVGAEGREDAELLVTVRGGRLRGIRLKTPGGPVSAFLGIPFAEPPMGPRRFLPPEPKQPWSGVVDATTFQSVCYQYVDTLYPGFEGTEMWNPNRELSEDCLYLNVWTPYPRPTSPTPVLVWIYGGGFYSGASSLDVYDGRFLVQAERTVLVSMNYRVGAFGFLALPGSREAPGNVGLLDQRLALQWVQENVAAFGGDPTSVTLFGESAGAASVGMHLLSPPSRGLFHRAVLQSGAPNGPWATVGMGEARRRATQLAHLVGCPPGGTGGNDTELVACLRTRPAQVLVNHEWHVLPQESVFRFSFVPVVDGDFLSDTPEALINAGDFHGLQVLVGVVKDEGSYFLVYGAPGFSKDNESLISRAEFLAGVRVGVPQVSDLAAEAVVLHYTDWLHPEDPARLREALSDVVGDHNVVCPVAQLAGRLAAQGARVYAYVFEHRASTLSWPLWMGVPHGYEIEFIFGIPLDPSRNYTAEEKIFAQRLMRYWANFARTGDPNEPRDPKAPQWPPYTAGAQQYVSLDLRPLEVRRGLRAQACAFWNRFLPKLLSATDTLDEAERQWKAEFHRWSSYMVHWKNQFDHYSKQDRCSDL
- assayRemarks: Acetylcholinesterase (AChE) small molecule antagonists: fluorescence cell-based qHTS assay (AID 1347398); also: nearly all actives have a fitted effect of over 50% in size
- experimentalSetup: SH-SY5Y cells; AChE activity; series mostly up to 115 µM
Records with an inconclusive call do not appear. Active and inactive are the calls of the source. Calls follow the shape of the full dose curve.
Labels: active, inactive

compound=CC(C)O.CC(C)O.OCCN(CCO)CCO.OCCN(CCO)CCO.[Ti] measuredon="Acetylcholinesterase (Homo sapiens) (UniProt P22303)" classname=inactive
compound=O=C(CBr)c1ccccc1 measuredon="Acetylcholinesterase (Homo sapiens) (UniProt P22303)" classname=inactive
compound=CN1C[C@H](CNC(=O)OCc2ccccc2)C[C@@H]2c3cccc4c3c(cn4C)C[C@H]21 measuredon="Acetylcholinesterase (Homo sapiens) (UniProt P22303)" classname=active
compound=Nc1nc(N)nc(N)n1 measuredon="Acetylcholinesterase (Homo sapiens) (UniProt P22303)" classname=inactive
compound=C=CC(=O)NCNC(=O)C=C measuredon="Acetylcholinesterase (Homo sapiens) (UniProt P22303)" classname=inactive
compound=CC(=O)[C@H]1CC[C@H]2[C@@H]3CC[C@H]4C[C@](C)(O)CC[C@]4(C)[C@H]3CC[C@]12C measuredon="Acetylcholinesterase (Homo sapiens) (UniProt P22303)" classname=inactive
compound=OC(c1ccc(Cl)cc1)(c1ccc(Cl)cc1)c1cccnc1 measuredon="Acetylcholinesterase (Homo sapiens) (UniProt P22303)" classname=inactive
compound="CC(Cl)C(C)Cl (stereo unspecified)" measuredon="Acetylcholinesterase (Homo sapiens) (UniProt P22303)" classname=inactive
compound=CCCN(CC1CC1)c1c([N+](=O)[O-])cc(C(F)(F)F)cc1[N+](=O)[O-] measuredon="Acetylcholinesterase (Homo sapiens) (UniProt P22303)" classname=inactive
compound="CC(O)(CS(=O)(=O)c1ccc(F)cc1)C(=O)Nc1ccc(C#N)c(C(F)(F)F)c1 (stereo unspecified)" measuredon="Acetylcholinesterase (Homo sapiens) (UniProt P22303)" classname=inactive
compound=CCCCOC(=O)c1ccccc1C(=O)OCc1ccccc1 measuredon="Acetylcholinesterase (Homo sapiens) (UniProt P22303)" classname=inactive
compound=CC(C)(OO)c1ccccc1 measuredon="Acetylcholinesterase (Homo sapiens) (UniProt P22303)" classname=inactive
compound=OCCCBr measuredon="Acetylcholinesterase (Homo sapiens) (UniProt P22303)" classname=inactive
compound=O=[N+]([O-])c1ccc(F)c([N+](=O)[O-])c1 measuredon="Acetylcholinesterase (Homo sapiens) (UniProt P22303)" classname=inactive
compound=COc1nn(C(=O)NS(=O)(=O)c2ccccc2OC(F)(F)F)c(=O)n1C measuredon="Acetylcholinesterase (Homo sapiens) (UniProt P22303)" classname=inactive
compound=O=C(Nc1ccccc1)Nc1cnns1 measuredon="Acetylcholinesterase (Homo sapiens) (UniProt P22303)" classname=inactive
compound=C/C(=C\c1ccccc1)[N+](=O)[O-] measuredon="Acetylcholinesterase (Homo sapiens) (UniProt P22303)" classname=inactive
compound="Cc1c(F)c(F)c(COC(=O)C2C(/C=C(\\Cl)C(F)(F)F)C2(C)C)c(F)c1F (stereo unspecified)" measuredon="Acetylcholinesterase (Homo sapiens) (UniProt P22303)" classname=inactive
compound=Cl/C=C\C[N+]12CN3CN(CN(C3)C1)C2 measuredon="Acetylcholinesterase (Homo sapiens) (UniProt P22303)" classname=inactive
compound=CCCCCCC#N measuredon="Acetylcholinesterase (Homo sapiens) (UniProt P22303)" classname=inactive
compound=CCOc1ccc(C(C)(C)COCc2cccc(Oc3ccccc3)c2)cc1 measuredon="Acetylcholinesterase (Homo sapiens) (UniProt P22303)" classname=inactive
compound="CC(C)(C)C(O)C(Oc1ccc(Cl)cc1)n1cncn1 (stereo unspecified)" measuredon="Acetylcholinesterase (Homo sapiens) (UniProt P22303)" classname=inactive
compound=O=C(Nc1ccccc1)Nc1ccnc(Cl)c1 measuredon="Acetylcholinesterase (Homo sapiens) (UniProt P22303)" classname=inactive
compound=ClC=C(Cl)Cl measuredon="Acetylcholinesterase (Homo sapiens) (UniProt P22303)" classname=inactive
compound=O=[N+]([O-])c1cc(C(F)(F)F)cc([N+](=O)[O-])c1Cl measuredon="Acetylcholinesterase (Homo sapiens) (UniProt P22303)" classname=inactive
compound="Clc1ccc(C(OCCN2CCCCC2)c2ccccc2)cc1 (stereo unspecified)" measuredon="Acetylcholinesterase (Homo sapiens) (UniProt P22303)" classname=inactive
compound=Cc1ccc(-c2c(Cl)nc(C#N)n2S(=O)(=O)N(C)C)cc1 measuredon="Acetylcholinesterase (Homo sapiens) (UniProt P22303)" classname=inactive
compound=CCCCN=C=O measuredon="Acetylcholinesterase (Homo sapiens) (UniProt P22303)" classname=inactive
compound=ClCc1ccccc1 measuredon="Acetylcholinesterase (Homo sapiens) (UniProt P22303)" classname=inactive
compound="CC(C)N(CCC(C(N)=O)(c1ccccc1)c1ccccn1)C(C)C (stereo unspecified)" measuredon="Acetylcholinesterase (Homo sapiens) (UniProt P22303)" classname=inactive
compound=Brc1ccccc1 measuredon="Acetylcholinesterase (Homo sapiens) (UniProt P22303)" classname=inactive
compound=CC(C)(Cl)[N+](=O)[O-] measuredon="Acetylcholinesterase (Homo sapiens) (UniProt P22303)" classname=inactive
compound=CCCCN(N=O)C(=N)N[N+](=O)[O-] measuredon="Acetylcholinesterase (Homo sapiens) (UniProt P22303)" classname=inactive
compound=CC(Cl)Cl measuredon="Acetylcholinesterase (Homo sapiens) (UniProt P22303)" classname=inactive
compound=II measuredon="Acetylcholinesterase (Homo sapiens) (UniProt P22303)" classname=inactive
compound=O=C1NCN(c2ccccc2)C12CCN(CCCOc1ccc(F)cc1)CC2 measuredon="Acetylcholinesterase (Homo sapiens) (UniProt P22303)" classname=inactive
compound=CS/C(C)=N/OC(=O)N(C)SN(C)C(=O)O/N=C(\C)SC measuredon="Acetylcholinesterase (Homo sapiens) (UniProt P22303)" classname=active
compound="C=CC(=O)OCC(C)O (stereo unspecified)" measuredon="Acetylcholinesterase (Homo sapiens) (UniProt P22303)" classname=inactive
compound=CN(C)c1ccc(N(C)C)cc1 measuredon="Acetylcholinesterase (Homo sapiens) (UniProt P22303)" classname=active
compound=c1ccoc1 measuredon="Acetylcholinesterase (Homo sapiens) (UniProt P22303)" classname=inactive
compound=CCCCNP(N)(N)=S measuredon="Acetylcholinesterase (Homo sapiens) (UniProt P22303)" classname=inactive
compound="CN1[C@@H]2CC[C@H]1CC(OC(=O)c1cc(Cl)cc(Cl)c1)C2 (stereo partly specified)" measuredon="Acetylcholinesterase (Homo sapiens) (UniProt P22303)" classname=inactive
compound=COC(N)=O measuredon="Acetylcholinesterase (Homo sapiens) (UniProt P22303)" classname=inactive
compound=Cc1ccccc1C(=O)Nc1cccc(OC(C)C)c1 measuredon="Acetylcholinesterase (Homo sapiens) (UniProt P22303)" classname=inactive
compound="CC(=O)NC1CCSC1=O (stereo unspecified)" measuredon="Acetylcholinesterase (Homo sapiens) (UniProt P22303)" classname=inactive
compound=Nc1ccc(N=Nc2ccc(-c3ccc(N=Nc4c(S(=O)(=O)O)cc5cc(S(=O)(=O)O)c(N=Nc6ccccc6)c(O)c5c4N)cc3)cc2)c(N)c1 measuredon="Acetylcholinesterase (Homo sapiens) (UniProt P22303)" classname=inactive
compound=N#CCc1ccccc1 measuredon="Acetylcholinesterase (Homo sapiens) (UniProt P22303)" classname=inactive
compound=CCOS(C)(=O)=O measuredon="Acetylcholinesterase (Homo sapiens) (UniProt P22303)" classname=inactive
compound=[O-][Cl+]O measuredon="Acetylcholinesterase (Homo sapiens) (UniProt P22303)" classname=inactive
compound=COP(=O)(OC)O/C(=C/Cl)c1cc(Cl)c(Cl)cc1Cl measuredon="Acetylcholinesterase (Homo sapiens) (UniProt P22303)" classname=active
compound="CCCCC(CC)COP(=O)(Oc1ccccc1)Oc1ccccc1 (stereo unspecified)" measuredon="Acetylcholinesterase (Homo sapiens) (UniProt P22303)" classname=inactive
compound="CNP(=O)(OC)Oc1ccc(C(C)(C)C)cc1Cl (stereo unspecified)" measuredon="Acetylcholinesterase (Homo sapiens) (UniProt P22303)" classname=active
compound=CCBr measuredon="Acetylcholinesterase (Homo sapiens) (UniProt P22303)" classname=inactive
compound=CC(c1ccc(O)cc1)(c1ccc(O)cc1)c1ccc(O)cc1 measuredon="Acetylcholinesterase (Homo sapiens) (UniProt P22303)" classname=inactive
compound=CCOC(=O)CBr measuredon="Acetylcholinesterase (Homo sapiens) (UniProt P22303)" classname=inactive
compound="CN1C(=O)NC(=O)C(C)(C2=CCCCC2)C1=O (stereo unspecified)" measuredon="Acetylcholinesterase (Homo sapiens) (UniProt P22303)" classname=inactive

----------
- assayRemarks: qHTS assay for small molecule agonists of the antioxidant response element (ARE) signaling pathway (AID 743202)
- experimentalSetup: HepG2 ARE-bla reporter, beta-lactamase FRET, 16 h; series mostly up to 73.3 µM
Results filed as inconclusive are left out. Calls of active or inactive are those of the source. The call rests on the fitted dose curve; in most records, active means well fitted activation curve with a large enough effect in the signal ratio in the repeat runs (not every such curve was filed as active); inconclusive means weak or mixed curves, or effect the other way; inactive means no such curve, though single readings can be large or run the other way; the % refers to the signal ratio.
Labels: active, inactive

compound=Nc1ccc(N=Nc2ccc(-c3ccc(N=Nc4c(S(=O)(=O)O)cc5cc(S(=O)(=O)O)c(N=Nc6ccccc6)c(O)c5c4N)cc3)cc2)c(N)c1 classname=inactive
compound="CC(C)N(CCC(C(N)=O)(c1ccccc1)c1ccccn1)C(C)C (configuration not stated)" classname=inactive
compound="O=C(O)CC(Cl)C(=O)O (configuration not stated)" classname=active
compound=Cl/C=C\Cl classname=inactive
compound=Clc1cccc(SC2CCNCC2)n1 classname=inactive
compound="CNP(=O)(OC)Oc1ccc(C(C)(C)C)cc1Cl (configuration not stated)" classname=active
compound=Nc1nc(N)nc(N)n1 classname=inactive
compound=N#Cc1ccc(Cl)cc1 classname=inactive
compound=C=CC(=O)OC classname=inactive
compound="COC(=O)c1cncn1C(C)c1ccccc1 (configuration not stated)" classname=inactive
compound=O=C1CN=C(c2ccccc2)c2cc(Cl)ccc2N1CC1CC1 classname=active
compound=[CH3][Sn]([CH3])([Cl])[Cl] classname=active
compound=O=NN1CCCCCC1 classname=inactive
compound="CC1Sc2c(C(=O)O)c(=O)c3cc(F)c(N4CCNCC4)cc3n21 (configuration not stated)" classname=inactive
compound=CCOP(=S)(OCC)Oc1cc(Cl)c(Br)cc1Cl classname=inactive
compound=CN(N=O)c1ccc([N+](=O)[O-])cc1 classname=inactive
compound="Cn1cc[n+](C)c1 (tested in a mixture with another compound)" classname=inactive
compound=O=C(CCl)c1ccc(Cl)cc1Cl classname=active
compound=Cc1cc(=O)[nH]o1 classname=inactive
compound=CCCCNP(N)(N)=S classname=inactive
compound=c1ccc(C2CC2)c(OCC2=NCCN2)c1 classname=inactive
compound=CC[C@H]1C[C@H]2[C@@H]3CCC4=CC(=O)CC[C@@H]4[C@H]3CC[C@]2(C)[C@H]1O classname=active
compound=C#CCOC(C(=O)OCCN(C)C)(c1ccccc1)c1ccccc1 classname=inactive
compound=O=S1(=O)OC(c2cc(Br)c(O)c(Br)c2)(c2cc(Br)c(O)c(Br)c2)c2ccccc21 classname=inactive
compound=CCOC(=O)COc1cc(-c2nn(C)c(OC(F)F)c2Cl)c(F)cc1Cl classname=inactive
compound=CCn1cc[n+](C)c1 classname=inactive
compound=O=C=Nc1ccc(Cl)cc1 classname=active
compound="CCC(Cl)CCl (configuration not stated)" classname=inactive
compound="CC(=O)NC1CCSC1=O (configuration not stated)" classname=inactive
compound=CCOc1nc(F)cc2nc(S(=O)(=O)Nc3c(Cl)cccc3Cl)nn12 classname=inactive
compound=c1ccc(CN2CCNCC2)cc1 classname=inactive
compound=O=S(=O)(Cl)c1ccccc1 classname=inactive
compound=CC(C)(CCl)C(=O)Cl classname=inactive
compound=CC(=O)C(C)(C)C classname=inactive
compound=CCBr classname=inactive
compound="CCOC(=O)C(Cl)C(C)=O (configuration not stated)" classname=inactive
compound=S=C=NCc1ccccc1 classname=active
